biological target: T1, cynomolgus monkey BCMA (cynomolgus monkey, UniProt A0A2K5UD97 1-53); assay: SPR, IgG on chip, cyBCMA analyte
T1 construct: Soluble analyte in SPR; construct not described; also called cyBCMA; Cyno BCMA
T1 sequence (A0A2K5UD97 entry or part of it): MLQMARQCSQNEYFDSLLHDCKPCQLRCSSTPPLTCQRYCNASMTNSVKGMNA
parameter: log10(koff) (log10 of the value in s⁻¹)
The figures below represent log10 of koff, where koff is stated in s⁻¹.

I would be grateful if you could share the reported log10(koff) for A02_Rd4_6nM_C04 (antibody, V domains shown, IgG) VH: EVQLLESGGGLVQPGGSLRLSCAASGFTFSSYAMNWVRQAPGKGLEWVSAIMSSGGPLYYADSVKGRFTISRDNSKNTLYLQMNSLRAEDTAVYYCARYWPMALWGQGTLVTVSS VL: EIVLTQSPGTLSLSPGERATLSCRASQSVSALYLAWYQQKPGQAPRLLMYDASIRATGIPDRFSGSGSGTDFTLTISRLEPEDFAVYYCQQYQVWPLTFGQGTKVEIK .
-3.08

For A02_Rd4_0.6nM_C09 (antibody, V domains shown, IgG) VH: EVQLLESGGGLVQPGGSLRLSCAASGFTFSSYAMNWVRQAPGKGLEWVSAISDSGGSMWYADSVKGRFTISRDNSKNTLYLQMNSLRAEDTAVYYCARYWPMSLWGQGTLVTVSS VL: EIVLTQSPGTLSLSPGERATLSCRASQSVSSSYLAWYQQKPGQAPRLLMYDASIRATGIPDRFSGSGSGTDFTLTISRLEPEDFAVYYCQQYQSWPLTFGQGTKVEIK then?
-3.76

Another binder: C01_Rd4_6nM_C20 (antibody, V domains shown, IgG) VH: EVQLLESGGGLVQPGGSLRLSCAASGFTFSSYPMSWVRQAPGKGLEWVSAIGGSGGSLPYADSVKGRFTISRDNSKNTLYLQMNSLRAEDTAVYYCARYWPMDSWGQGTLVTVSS VL: EIVLTQSPGTLSLSPGERATLSCRASQSVSPLYLAWYQQKPGQAPRLLIYDASSRAPGIPDRFSGSGSGTDFTLTISRLEPEDFAVYYCQQYSAFPLTFGQGTKVEIK
-2.20

Lookup A02_Rd4_6nM_C05 (antibody, V domains shown, IgG) VH: EVQLLESGGGLVQPGGSLRLSCAASGFTFSSYAMNWVRQAPGKGLEWVSAIFASGGSTYYADSVKGRFTISRDNSKNTLYLQMNSLRAEDTAVYYCARYWPMTPWGQGTLVTVSS VL: EIVLTQSPGTLSLSPGERATLSCRASQSVSSSYLAWYQQKPGQAPRLLMYDASIRATGIPDRFSGSGSGTDFTLTISRLEPEDFAVYYCQQYQRWPLTFGQGTKVEIK
-2.89

Another binder to look at: A02_Rd4_0.6nM_C01 (antibody, V domains shown, IgG; also called P5AC1) VH: EVQLLESGGGLVQPGGSLRLSCAASGFTFSSYAMNWVRQAPGKGLEWVSAILSSGGSTYYADSVKGRFTISRDNSKNTLYLQMNSLRAEDTAVYYCARYWPMDIWGQGTLVTVSS VL: EIVLTQSPGTLSLSPGERATLSCRGGQSVSSSYLAWYQQKPGQAPRLLMYDASIRATGIPDRFSGSGSGTDFTLTISRLEPEDFAVYYCQQYQSWPLTFGQGTKVEIK
-2.80

Also, COMBO_Rd4_6nM_C10 (antibody, V domains shown, IgG) VH: EVQLLESGGGLVQPGGSLRLSCAASGFTFSSYPMSWVRQAPGKGLEWVSAIGGSGGSIHYADSVKGRFTISRDNSKNTLYLQMNSLRAEDTAVYYCARYWPMDSWGQGTLVTVSS VL: EIVLTQSPGTLSLSPGERATLSCRASQSVSSSYWGWYQQKPGQAPRLLMYDASIRATGIPDRFSGSGSGTDFTLTISRLEPEDFAVYYCQQYQCWPLTFGQGTKVEIK please.
-3.80

Check A02_Rd4_0.6nM_C13 (antibody, V domains shown, IgG) VH: EVQLLESGGGLVQPGGSLRLSCAASGFTFSSYAMNWVRQAPGKGLEWVSAISDSGGYRYYADSVKGRFTISRDNSKNTLYLQMNSLRAEDTAVYYCARYWPMSLWGQGTLVTVSS VL: EIVLTQSPGTLSLSPGERATLSCRASQSVSSSYWAWYQQKPGQAPRLLMYDASIRATGIPDRFSGSGSGTDFTLTISRLEPEDFAVYYCQQYESWPLTFGQGTKVEIK too.
-2.89

Input COMBO_Rd4_0.6nM_C04 (antibody, V domains shown, IgG) VH: EVQLLESGGGLVQPGGSLRLSCAASGFTFSSYPMSWVRQAPGKGLEWVSAHIGSGGSTYYADSVKGRFTISRDNSKNTLYLQMNSLRAEDTAVYYCARYWPMDSWGQGTLVTVSS VL: EIVLTQSPGTLSLSPGERATLSCRASQSVSSTYLAWYQQKPGQAPRLLMYDASIRATGIPDRFSGSGSGTDFTLTISRLEPEDFAVYYCQQYQSWPLTFGQGTKVEIK
-3.86

These entries and their values trace back to patent US20190241669A1.
